This collection of values is drawn from the supplement of paper PMC9732359.

Experiment: protein stability index of a GFP-peptide fusion (yeast GPS) (PSI 1-4); higher = more stable; sorted into four equal gates, so the index is relative within each strain
Details: doa10∆
Rule: protein stability index of 3 or more gives condition met; anything lower gives condition not met.

Answer whether protein stability index of ELSIRDVTHTLGMLDDN [SMC4] is greater than or equal to 3.
condition met

Given the entry YVRKHDPLNSNIFSEAV [PRP28] , answer whether its protein stability index meets or surpasses 3.
condition not met

In plain terms: is recorded protein stability index at least 3 for NFNDIPPSVTLQDWQRE [YDL088C/ASM4] ?
condition not met

Evaluate VERIQKMIEKIEKMSTI [YIL149C/MLP2] : protein stability index at minimum 3?
condition met

I'd appreciate it if you could say whether ETEKFALERNWPIVNSK [RPN12] has protein stability index at least equal to 3.
condition met

Check this sequence for protein stability index at or above 3: IELLSYLVEAPWNDDYP [YML103C/NUP188]
condition not met

Identify whether the reported protein stability index of the following sequence is 3 or greater: NSKPVELKPVSLDNKTL [YJL041W/NSP1]
condition not met

Is protein stability index for LNDPSLKIQFILSTTLD [SIN4] at or above 3?
condition not met

# check: protein stability index of FMNDAAADVSAVDAKQL [YML103C/NUP188] is greater than or equal to 3
condition not met

Check if protein stability index >= 3 (inclusive). Item: IGFTIKEYENHSGELMR [SMC1]
condition not met

Can NIRNNIESQNLDLIPHS [SRB4] be said to have protein stability index at or above 3?
condition not met

Decide: is the reported value of protein stability index for DVVAHRQLAGAIGYEPL [DIS3] equal to or greater than 3?
condition not met

API: above_or_equal(metric=protein stability index, cutoff=3) for item YATKDGVAHLLNRFNFQ [QCR2]
condition not met

Item DGYQLFHAEPSGTFYRY [PUP2] with protein stability index of 3 or above?
condition not met

Reported protein stability index reaches at least 3 for VVLRLYLKDNITLLTRQ [GRR1] ?
condition not met

Hi team, for GQQTAQPQQSTIGGGLF [YGR119C/NUP57] , is the recorded protein stability index at or above 3?
condition not met

Textbook exercise: given the entry MKLSMPPEVTSSNCHVR [POP1] , state whether its protein stability index is greater than or equal to 3.
condition not met

Given QQLNKQRQDFERVRLRP [SNF6] , state whether its protein stability index is at least 3.
condition not met

Quick check: does LNRIINHMLIDSLNQLE [RGR1] have protein stability index greater than or equal to 3?
condition met

Decide: is the reported value of protein stability index for LIEKLQGFSKDTFELIK [YDL116W/NUP84] equal to or greater than 3?
condition met

Given the entry IEAGRAALYKEVYNVIA [RPO21] , answer whether its protein stability index meets or surpasses 3.
condition not met

Threshold query (protein stability index >= 3) on VDVNNKFIALCEQQPSQ [SIN4]
condition not met

Can KSVKFVQGLLQNAAANA [RPL17A] be said to have protein stability index at or above 3?
condition not met

Exam item: decide whether the reported protein stability index for QYIRTLVSEARTLWPEF [SSN8] is at least 3.
condition not met

Given NHITEFPSIPLPINGPI [RPC31] , state whether its protein stability index is at least 3.
condition not met

Hello, I need to know if AFGSSATDISGELRDYI [YJR042W/NUP85] has measured protein stability index not below 3. Thanks!
condition met

Hi team, for SKNFNVILASSLNEVGT [YML103C/NUP188] , is the recorded protein stability index at or above 3?
condition not met

Answer whether protein stability index of PLLVPGMTPCTVSPDFV [FAS1] is greater than or equal to 3.
condition not met

Does DVNALKFNNTQRESQIG [SNF12] have a reported protein stability index of at least 3?
condition not met

Decide: protein stability index of LVRSIIAFDDLIENKIQ [RPN8] >= 3?
condition not met

Please tell me: is the sequence DAFNMLSLTTVPCDRIE [SNF6] at or over 3 in terms of protein stability index?
condition not met

Check the entry QEQVYPDFKPWEHTAAE [SRB8] : does protein stability index equal or exceed 3?
condition not met

Hello, I need to know if FQSVQLNINNPNFLIMQ [SMC2] has measured protein stability index not below 3. Thanks!
condition not met

Determine whether measured protein stability index meets or exceeds 3 for SVHLIECYKQLFLTAPD [YCS4]
condition not met

Exam item: decide whether the reported protein stability index for QDENIGLSMLAKLKELA [RPC31] is at least 3.
condition met

Kindly determine if protein stability index recorded for KAKSHFTNIISRNKALE [YJL039C/NUP192] is above or exactly 3.
condition not met

// inclusive: protein stability index at least 3? input: VSNIEGILDEIMFNHAR [RGR1]
condition not met

Is protein stability index for KELAELKVQKLSRPSLP [RPL35A] at or above 3?
condition not met

Hi, just wondering whether LVVYAEDNGIVKALRNV [RPL4A] shows protein stability index of 3 or higher.
condition not met

Could you tell me if the measured protein stability index of LLNVSVNITKFSKFERS [SKI6] reaches 3 or more?
condition not met

Form field: protein stability index at least 3? Entry: PYGVYHPPFIKYACLAI [SIN4]
condition not met

Identify whether the reported protein stability index of the following sequence is 3 or greater: STSFSFNAPATGNGTTT [YOR098C/NUP1]
condition not met

Is protein stability index at least 3? Consider NLTIHFGGEKGKRIREN [FAS1]
condition met

I'd appreciate it if you could say whether LFKNYRFNFISKYFIID [YMR129W/POM152] has protein stability index at least equal to 3.
condition not met

Tell me whether protein stability index is at least 3 here: GGVGSMGAINNNIPSLT [SNF6]
condition met

# bool: protein stability index of QDREITNWARTTFRNEY [MED8] >= 3
condition not met

Would you say VDPIQSVKGKVVIDAFR [RPN11] shows protein stability index at minimum 3?
condition not met

Does IQQHARYDCSFCGKKTV [RPL43A] have a reported protein stability index of at least 3?
condition not met

Is protein stability index for GIGGDHAKFSPVSTASY [RPC40] at or above 3?
condition not met

// inclusive: protein stability index at least 3? input: EKWLLNQIPVTEHSKVT [SRB6]
condition not met

Please indicate if the recorded protein stability index for FERIMILDPQVTRFTTW [YJL039C/NUP192] meets or exceeds 3.
condition not met

Could you please find out whether NDILDELLCGMANKEWR [ECM29] has protein stability index that meets 3 or exceeds it?
condition not met

Threshold query (protein stability index >= 3) on KETIARVTGGMKVKADR [RPS14A]
condition met

###

Experiment: protein stability index of a GFP-peptide fusion (yeast GPS) (PSI 1-4); higher = more stable; sorted into four equal gates, so the index is relative within each strain
Details: doa10∆
ASSAY_ENDPOINT: protein stability index
Hey, just send me the number, nothing else.

Tell me the measured protein stability index of KRKTNIIMFVGLQGSGK [SRP54] , please.
2.69

Query: protein stability index; subject: VGLVSPSFMLKHHQLFY [RPN1]
1.64

Bench note: what protein stability index did QQIWKSPNFKNYLKYLE [SOH1] show?
1.72

Which protein stability index value belongs to TTVITVFLEFSLNFIPI [YML103C/NUP188] ?
1.42

Query (sequence): IDETMMDKPLNFRILKS [SRB5] ; field requested: protein stability index
2.95

GET /values?readout=protein stability index&item= KRYRLKESQLPRIQRAD [RPB5]
2.86

Sample PDENKTRVRLPSGAKKV [RPL2A] — what was its protein stability index?
3.12

Recorded protein stability index of AFVKQKNDSLEKTINDL [YIL149C/MLP2] , please.
3.1

If you can, please state the reported protein stability index value of PKQSDEYLKRVSVPVSG [SIR3] .
3.13

Fill in: protein stability index of KAIRGMVSHKTARGKAA [RPL16B] is ___
1.94

Query (sequence): CIECQPKAMTDTDNECV [HRT1] ; field requested: protein stability index
3.26

Look at this sequence and give its reported protein stability index. ERSLRQKYNLLHVLPTL [SNM1]
1.22

Form field: reported protein stability index of PANNHQLGLQTVIRGNS [SMX2]
3.02

Which measured protein stability index value corresponds to QGLAMVEKYAPDVVRSL [RRP42] ?
2.25

Would you mind telling me what protein stability index value was observed for DVILDYQTKKFYDYIKE [REC8] ?
2.4

Any idea what protein stability index was measured for QEKMDPNNSRDDYKDLT [IRR1] ?
3.33

For the sequence shown here, HHELIKVKHDSQPFIKF [SSN2] , give the reported protein stability index.
3.14

Look up protein stability index: GIIVAVDSRATAGNWVA [PRE2]
1.14

// protein stability index lookup, key: FMEIVLEYNVALNDVYL [YML031W/NDC1]
2.47

Need protein stability index of KDQLPDLESMGLTQLYK [MED7] , thanks.
2.85

protein stability index for SVALHRHSNALVDILPP [RPT3] ?
1.63

# lookup: protein stability index of NLLPKKSAKATKASQEL [HTA1]
2.93

# get_value(readout='protein stability index', item= IKNLTVQLSPSNPQHII [RGR1] )
2.6

Which protein stability index reading was recorded for the sequence TIQSDLNLSLHKLDLAK [SMC2] ?
2.81

Which protein stability index is listed for AKYHAKLNKKLQHLRSR [SRP68] ?
3.3

What value of measured protein stability index is listed for LYVPRKCSATNRIIKAD [RPS21A] ?
3.08

// query protein stability index value for entry NNGSSDKSLDSSNASFN [MED1]
2.92

Can you share its protein stability index? I mean this sequence: KEDHPLEFYKDKFFNEV [SIR3]
3.21

Request the reported protein stability index associated with CNNINKGLKENDVAVEK [BRR2]
3.17

Item NPHDGVNSIALFVGTDR [RPN14] has what recorded protein stability index?
2.08

Which protein stability index value belongs to IYDFPGTPEATKGMITN [NUT2] ?
2.54

Field request: protein stability index | item: GEKKVGSNGELFGGRHY [SWP82]
3.13

Give its protein stability index value. Item: KITSPIRSVALNDSNVK [RRP42]
2.6

For LEKLVDHHPEGLSAREA [PRE10] , what is its reported protein stability index?
2.92

What value of measured protein stability index is listed for ISVNSSSFSLTFFPRCI [POP1] ?
2.55

Any idea what its protein stability index is? The sequence is ASHNEKDQDSQIELSCN [SRP72]
2.85

Need protein stability index, item EQRHLKRELKRAQEEVK [RPT3]
3.13

// protein stability index lookup, key: LQRHLSLGIRPCLRKYE [RRP43]
2.61

So what's the measured protein stability index for this one? CRLFFTELASKDNAIYN [YCS4]
1.3

Give the measured protein stability index of RFVMPNQLLAALVAYTP [RRP6] .
1.83

Need protein stability index, item IDQAHVSEITKLKFFPS [RPN14]
3.12

State the recorded protein stability index for this entry: NNAHSSDLGTVVFDSNE [YMR153W/NUP53]
2.56

protein stability index lookup needed for SKNLGEINTALNTLLVT [SWI1] , thanks.
1.23

Reported protein stability index, sequence EVRDATLNNIFRFDSIQ [GRR1] : ____
3.18

Need protein stability index of FRLIDTGALINNLEPRQ [RPN11] , thanks.
2.81

Report protein stability index for NNVYFAAGALFVSSGFD [RPN14] please.
1.78

May I ask what protein stability index has been recorded for KDLETLYNKIWTEASSS [ECM29] ?
3.24

Request the reported protein stability index associated with LPENIILTSLMRSKLEK [CSN9]
2.38

Form field: reported protein stability index of NLGYCNDKLIVDNDNWV [RPN1]
2.37

Please give the measured protein stability index for this sequence: EDGTFSVLYPDELEDDT [RRP43]
3.23

Please give the measured protein stability index for this sequence: KPPSSAFNFSFNTSRNV [YAR002W/NUP60]
3.2

Any idea what its protein stability index is? The sequence is GINKNEEYRKQLDKKNE [SMC1]
3.22

# protein stability index lookup, item YIQRRLVKALEDIMVHY [RPO21]
1.77

protein stability index for LNRLLRLIVDPNIADYI [PRP8] ?
1.83

What does the data say about its protein stability index? Entry: VVSILEAGDSDILTTLA [RPL30]
3.12

Which protein stability index is reported for this sequence? TEGRSRDGGLRLGEMER [RET1]
1.35

# lookup: protein stability index of TAQKYPIYTGDGWVKLT [YMR153W/NUP53]
1.63

Field request: protein stability index | item: SPYNADFDGDEMNLHVP [RPO21]
3.15

Form field: reported protein stability index of PFYGSYTETDPAKVAEE [SRP54]
3.19

Would you kindly share the measured protein stability index for QIMQLKKICNHPFVFEE [SNF2] ?
2.77
